These entries and their values trace back to paper PMC467089.

System: CEM-DNR (daunorubicin resistant variant of CCRF-CEM)
Assay: MTS cytotoxicity assay, CEM-DNR
Assay type: cell-based, human
Conditions: Homo sapiens, CEM-DNR, 72 h, read-out: IC50 cytotoxic activity CEM-DNR
pIC50: −log10 of the molar value.
ATTRIBUTE MEASURED: pIC50

[[record]]
compound = "COc1cc2c(c(OC)c1OC)-c1ccc(OC)c(=O)cc1[C@@H](NC(C)=O)CC2 [Colchicine, reference compound]"
value_observed = 5.99

[[record]]
compound = "C[C@]12CC[C@@H]3c4ccc(O)cc4CC[C@H]3[C@@H]1CC[C@@]2(O)c1cn(Cc2ccc(O)c(Cn3cc([C@]4(O)CC[C@H]5[C@@H]6CCc7cc(O)ccc7[C@H]6CC[C@@]54C)nn3)n2)nn1"
value_observed = "< 4.30"

[[record]]
compound = "C[C@]12CC[C@@H]3c4ccc(O)cc4CC[C@H]3[C@@H]1CC[C@@]2(O)c1cn(Cc2cc(O)cc(Cn3cc([C@]4(O)CC[C@H]5[C@@H]6CCc7cc(O)ccc7[C@H]6CC[C@@]54C)nn3)c2)nn1"
value_observed = "< 4.30"

